Origin of measurements: the supplement of paper PMC6555819

# System: LXRb homodimer (NR concentration 270 nM)
# measurement.protocol: PBM binding z-score (relative to random genomic background probes); higher = stronger binding; sequences stand for … in GC…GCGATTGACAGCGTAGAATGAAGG
class 1 means recorded PBM binding z-score is 1 or above; class 0 means it is below 1.

Examples from the recorded data:
{"sequence.string": "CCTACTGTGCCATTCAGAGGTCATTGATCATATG", "class.name": "class 1"}
{"sequence.string": "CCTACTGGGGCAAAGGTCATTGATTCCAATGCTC", "class.name": "class 0"}
{"sequence.string": "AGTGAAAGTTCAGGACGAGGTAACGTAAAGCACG", "class.name": "class 0"}
{"sequence.string": "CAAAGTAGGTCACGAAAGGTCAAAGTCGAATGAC", "class.name": "class 1"}
{"sequence.string": "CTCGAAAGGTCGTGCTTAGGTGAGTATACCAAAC", "class.name": "class 0"}

input: Kindly determine if PBM binding z-score recorded for "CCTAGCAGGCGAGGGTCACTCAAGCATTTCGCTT" is above or exactly 1.
output: class 0

input: Decide: is the reported value of PBM binding z-score for "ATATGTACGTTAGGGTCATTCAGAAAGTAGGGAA" equal to or greater than 1?
output: class 1

input: Is PBM binding z-score for "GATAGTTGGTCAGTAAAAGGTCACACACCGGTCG" at or above 1?
output: class 0

input: Is reported PBM binding z-score greater than or equal to 1 here: "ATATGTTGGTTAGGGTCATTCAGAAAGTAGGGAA"
output: class 1

input: Does the reported PBM binding z-score for "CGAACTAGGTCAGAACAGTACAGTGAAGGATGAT" fall at or above the 1 mark?
output: class 0

input: Does the reported PBM binding z-score for "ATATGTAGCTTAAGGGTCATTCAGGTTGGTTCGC" fall at or above the 1 mark?
output: class 0

input: Can "ACTCGGAGGACAAAGGTCAGAACTACGCCAGTGA" be said to have PBM binding z-score at or above 1?
output: class 1

input: Reported PBM binding z-score at or above 1? "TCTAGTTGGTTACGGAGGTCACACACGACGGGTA"
output: class 1

input: Dear colleague, could you confirm whether "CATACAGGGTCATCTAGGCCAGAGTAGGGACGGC" has PBM binding z-score at or above 1?
output: class 0

###

# System: PXR homodimer (NR concentration 270 nM)
# measurement.protocol: PBM binding z-score (relative to random genomic background probes); higher = stronger binding; sequences stand for … in GC…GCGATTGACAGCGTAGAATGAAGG
// bucketize PBM binding z-score: class 0 = under 0.5, class 1 = from 0.5 up to 1, class 2 = 1 and over

Some solved cases for reference:
{"sequence.string": "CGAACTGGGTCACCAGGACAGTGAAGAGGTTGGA", "measured.on": "PXR homodimer (NR concentration 270 nM)", "class.name": "class 0"}
{"sequence.string": "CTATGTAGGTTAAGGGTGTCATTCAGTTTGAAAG", "measured.on": "PXR homodimer (NR concentration 270 nM)", "class.name": "class 1"}
{"sequence.string": "CTATGTAGGTTAAGGGGGTAATTCAGTTTGAAAG", "measured.on": "PXR homodimer (NR concentration 270 nM)", "class.name": "class 2"}
{"sequence.string": "GATACAAGGTCAGCTAGAGGCCAGAGTATGGAAA", "measured.on": "PXR homodimer (NR concentration 270 nM)", "class.name": "class 0"}
{"sequence.string": "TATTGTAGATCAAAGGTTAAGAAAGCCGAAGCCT", "measured.on": "PXR homodimer (NR concentration 270 nM)", "class.name": "class 0"}
{"sequence.string": "CCGAGTAGGTTACGAGGGGGTATTCAGTGCGAAT", "measured.on": "PXR homodimer (NR concentration 270 nM)", "class.name": "class 1"}
{"sequence.string": "CCTACTGGGCAAAAAAGGTCATTGATGCCGATAA", "measured.on": "PXR homodimer (NR concentration 270 nM)", "class.name": "class 2"}
{"sequence.string": "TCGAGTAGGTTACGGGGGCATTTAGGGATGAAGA", "measured.on": "PXR homodimer (NR concentration 270 nM)", "class.name": "class 2"}

input: For the record "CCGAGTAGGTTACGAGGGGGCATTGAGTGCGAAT" , report the class its PBM binding z-score corresponds to.
output: class 2
